Recorded values, source patent US6211227A.

system: bladder; test: animal or person; settings: Rattus norvegicus, po, 4 h, read-out: Contraction interval
Below: a set of entries, each annotated with reported response vs control in vivo at 1 mg/kg.
I only need the number, in %, no unit after it.

Answered examples (5):
- O=C1c2sccc2CS(=O)(=O)c2cccc(NC(=O)C3CCCO3)c21 (centres unmarked): 150
- O=C1c2ccc(NC(=O)C(F)(F)F)cc2S(=O)(=O)Cc2ccsc21: 157
- COc1ccc2c(c1)CS(=O)(=O)c1cccc(NC(=O)C(C)(O)C(F)(F)F)c1C2=O (centres unmarked): 169
- CC(O)(C(=O)Nc1ccc(Cl)c2c1C(=O)c1sccc1CS2(=O)=O)C(F)(F)F (centres unmarked): 142
- CC(O)(C(=O)Nc1cccc2c1C(=O)c1sccc1CS2(=O)=O)C(F)(F)F (centres unmarked): 181

Entry CC(O)(C(=O)Nc1ccc2c(c1)S(=O)(=O)Cc1ccsc1C2=O)C(F)(F)F (centres unmarked) : reported response vs control in vivo at 1 mg/kg = ? 143

If you can, please state the reported response vs control in vivo at 1 mg/kg value of CC(O)(C(=O)Nc1cccc2c1C(=O)c1cccc(F)c1CS2(=O)=O)C(F)(F)F (centres unmarked) . 145

Item CC(O)(C(=O)Nc1ccc2c(c1)C(=O)c1sccc1CS2(=O)=O)C(F)(F)F (centres unmarked) has what recorded response vs control in vivo at 1 mg/kg? 135
